# ASSAYED TARGET: DNA polymerase iota (Homo sapiens)
# ASSAY METHOD TEXT: qHTS for Inhibitors of Polymerase Iota
# PROTOCOL CONDITIONS: Pol iota fluorescent replication assay, 10 min; series mostly up to 115 µM
The campaign covered roughly 390,000 compounds. About 4,000 (1%) were called active. About 7% were inconclusive and are not listed. The call rests on the fitted dose curve; in most records, active means well fitted inhibition curve with a large enough effect; inconclusive means small, poorly fitted or top-dose-only effect, or another doubt; inactive means no such curve, though single readings can be large or run the other way. The list comes from a sample in which actives are over-represented; it also holds close analogues and randomly drawn compounds.
Thanks in advance; please answer with one of these: active, inactive

>>> assigned_class("CCc1ccc(CNC(=O)c2cc3c(=O)n(CC)c4ccccc4c3s2)cc1")
"inactive"
>>> assigned_class("Cc1ccc2nc(COc3cccc(NC(=O)c4cccc(Cl)c4)c3)cc(=O)n2c1")
"active"
>>> assigned_class("COc1ccc(NC(=O)CSc2nc(NS(=O)(=O)c3ccc(C)cc3)cc(=O)[nH]2)cc1")
"inactive"
>>> assigned_class("CCN(C(=O)Cn1c(=O)nc(-c2ccccc2)c2cc(Cl)ccc21)c1cccc(C)c1")
"inactive"
>>> assigned_class("Cc1ccc(N=C2NC(=O)/C(=C/C=C/c3ccco3)S2)cc1C")
"active"

Assay outcome for `CCc1cc2c(-c3ccccc3)cc(=O)oc2c2c1OCN(Cc1ccc(C)cc1)C2` : what was it?
inactive

----------
# ASSAYED TARGET: DNA polymerase iota (Homo sapiens)
# ASSAY METHOD TEXT: qHTS for Inhibitors of Polymerase Iota
# PROTOCOL CONDITIONS: Pol iota fluorescent replication assay, 10 min; series mostly up to 115 µM
Among all 390,000 compounds or so, about 4,000 (1%) were called active. Not shown: some 7% with an inconclusive outcome. The call rests on the fitted dose curve; in most records, active means well fitted inhibition curve with a large enough effect; inconclusive means small, poorly fitted or top-dose-only effect, or another doubt; inactive means no such curve, though single readings can be large or run the other way. This excerpt belongs to a sample that is enriched for actives.
Thanks in advance; please answer with one of these: yes (active), no (inactive)

>>> assigned_class("Cc1ccc(CNC(=O)CSC2=Nc3ccccc3C3=NC(C)C(=O)N23)cc1 (centres undefined)")
"no"
>>> assigned_class("CC(C)(C)c1ccc(C(=O)C[n+]2cccc3cc(Cl)ccc32)cc1")
"no"
>>> assigned_class("CCOc1ccccc1-c1cc(C(=O)N2CCOCC2)c2ccccc2n1")
"no"
>>> assigned_class("CCC(=O)N1CCc2cc(Br)cc(S(=O)(=O)CCC(=O)NCCc3ccc(OC)c(OC)c3)c21")
"no"
>>> assigned_class("CN(C(=O)COC(=O)c1cc(-c2ccco2)nc2ccccc12)C1CCS(=O)(=O)C1 (centres undefined)")
"yes"

Assay outcome for `Cc1ccc(OCC(=O)NCCCNC(=O)c2cccnc2)cc1C` : what was it?
no

Assay outcome for COc1ccc(NC(=O)COc2ccc(C(=O)OCC(=O)N(C)C3CCS(=O)(=O)C3)cc2OC)cc1 (centres undefined) : what was it?
no

Assay outcome for CC1CCCN(C(=O)c2cc(-c3ccco3)nc3ccccc23)C1 (centres undefined) : what was it?
yes

Assay outcome for `O=C(COc1ccccc1C(=O)Nc1ccccc1)Nc1cccc(F)c1` : what was it?
no

Assay outcome for `Cc1ccc(-c2nn3c(=O)cc(CN4CCN(S(=O)(=O)c5ccc(Cl)cc5)CC4)nc3s2)cc1` : what was it?
no

Assay outcome for `COc1cc(Cl)c(C)cc1NC(=O)CCc1nc2cccnc2n1Cc1cccs1` : what was it?
no

Assay outcome for CCOC(=O)CSC1=Nc2ccccc2C2=NC(CCC(=O)NCc3ccc(F)cc3)C(=O)N12 (centres undefined) : what was it?
no

Assay outcome for `CN(C)S(=O)(=O)c1cccc(-c2nn(-c3ccccc3)cc2/C=C2\SC(=S)N(CC(=O)O)C2=O)c1` : what was it?
yes

Assay outcome for `O=C(NC1=CC(=O)c2ccccc2C1=O)c1ccccc1` : what was it?
yes

Assay outcome for `COc1ccc(Cl)cc1NC(=O)CCC(=O)c1ccc(C)cc1` : what was it?
no

Assay outcome for COc1ccc(C2Sc3ccccc3NC3=C2C(=O)c2ccccc23)c(OC)c1OC (centres undefined) : what was it?
no

Assay outcome for CN(C)C1=C2C=CC=CC2/C(=C2/C=Cc3ccccc32)C=C1 (centres undefined) : what was it?
no

Assay outcome for `COc1ccc(-c2nc3sc(CCNS(=O)(=O)c4ccc(F)c(C)c4)c(C)n3n2)cc1` : what was it?
no
